test system: HEK-293T; experiment: Incucyte cell viability with HEK293T; format: toxicity, cell-based; details: human, 0 h, 10 µM, compound concentration 10 uM, replicate number 1; further: unitless GR value; below 1 slowed growth and below 0 cell loss
Answer F if Growth Rate is under -0.2, and T if it is -0.2 or more.

Solved cases below.
* COc1nc2ccc([C@@](O)(c3ccc(Cl)cc3)c3cncn3C)cc2c(Cl)c1Cc1ccc(-n2cccn2)cc1 [JNJ-53721590] | F
* CNc1ncc2cc(-c3ccc(-c4cccc(C)n4)cc3Cl)c(=O)n(C[C@H]3OC[C@H](N)CO3)c2n1 | F
* CCOC(=O)Nc1ccc2c(c1)N(C(=O)CN(CC)CC)c1ccccc1CC2 | T
* CN[C@@H](C)C(=O)N[C@H](C(=O)N1CCC[C@H]1C(=O)Nc1sc(-c2ncco2)nc1-c1ccccc1)C1CCCCC1 [GDC-0917] | T
* CCO[C@H](COc1ccc(C(F)(F)F)cc1)CSc1ccc(OCC(=O)[O-])c(C)c1.[Na+] | F
* O=C(O)CCCc1cc2cc(Cl)ccc2n1S(=O)(=O)c1ccc2ncsc2c1 [LANIFIBRANOR] | T

Here's the next entry for you.
Problem: Test whether the compound CCn1c(CNC(=O)c2nc(Cl)cnc2N)[n+](CC)c2ccc(C(=O)N(C)CCN(C)C)cc21.[Cl-] records Growth Rate of -0.2 or higher.
Solution: T

----------
So I've got a bunch of compounds here, and I need their Growth Rate values.
system: Fibroblast; test: Incucyte cell viability with human fibroblast; type: toxicity, cell-based; settings: 6 h, 10 µM, compound concentration 10 uM, replicate number 1; further: unitless GR value; below 1 slowed growth and below 0 cell loss
Numbers only.

* Cc1cc2c(cc(C(=O)N[C@H](CO)c3ccc(S(=O)(=O)CC(=O)O)cc3)n2C)c(Cl)c1Cl | 0.15
* O=C1NC(Nc2ccccc2)=N/C1=C\c1ccc2c(c1)OCO2 | -0.96
* Cc1ccc(C(=O)Nc2cc(N3CCN(C)CC3)cc(C(F)(F)F)c2)cc1-n1cc(-c2cnn(C)c2C)nn1.Cl | 0.66
* Cl.Cl.Fc1ccc([C@@H]2CCNC[C@H]2COc2ccc3c(c2)OCO3)cc1.Fc1ccc([C@@H]2CCNC[C@H]2COc2ccc3c(c2)OCO3)cc1.O [PAROXETINE HYDROCHLORIDE] | -0.26
* Cc1cc([N+](=O)[O-])c(NS(=O)(=O)c2cccc(C(=O)O)c2)cc1-c1cccnc1 | 0.27
* CC(C)c1cnn2c(NCc3ccccc3)cc(NCCCCCCN)nc12.Cl | 0.36
* NCc1ccc(OCCCc2sc(-c3ccc4c(c3)/C(=N/Nc3nc5ccccc5s3)CCC4)nc2C(=O)O)cc1 | 0.94

Now consider a different compound.
Problem: Tell me reported Growth Rate for Cc1c[nH]c(-c2cnc(NCCNc3ccc(C#N)cn3)nc2-c2ccc(Cl)cc2Cl)n1 , tested with Fibroblast.
Solution: 0.56

----------
Task for the reader: assign each of the following compounds its reported Growth Rate.
test system: U2OS; assay: Incucyte cell viability with U2OS; type: toxicity, cell-based; conditions: human, 0 h, 10 µM, compound concentration 10 uM, replicate number 2; further: unitless GR value; below 1 slowed growth and below 0 cell loss
One number for each entry.

As a guide, the following entries are already answered.
- C=CC(=O)Nc1cc(-c2nn(C3CCC(N4CCN(C(C)=O)CC4)CC3)c3ncnc(N)c23)ccc1Oc1ccccc1 (centres undefined): -0.83
- COc1ccc(S(=O)(=O)N2CCOCC2)cc1Nc1ccc2c(n1)N(C1CCN(C)CC1)[C@H](C)C(=O)N2C: 0.58
- COc1cc(Nc2cnc(C#N)c(O[C@H](C)CN(C)C)n2)ncc1-c1cnn(C)c1: 0.66
- Cc1ccc(S(=O)(=O)O)cc1.Cn1cc(-c2ccc(F)c(C(F)(F)F)c2)nc1C1CCN(c2ncnc3[nH]ncc23)CC1: -1
- CC(C)[C@H](CO)Nc1nc(Nc2ccc(C(=O)O)c(Cl)c2)c2ncn(C(C)C)c2n1: 0.8

Give Growth Rate for each of the items listed below.
1. Cn1cc(-n2cnc3c(NCc4nc5cc(Cl)c(Cl)cc5[nH]4)nc(N4CCOCC4)nc32)cn1
2. CC1(C)OC(=O)c2ccc(Nc3ncc(-c4nnco4)c(N[C@H](CO)c4ccccc4)n3)cc21
3. N#Cc1cccc(-c2nc(-c3cccnc3)no2)c1

Solution:
-0.97
-0.4
-0.52

Problem: What value of Growth Rate has been recorded for this entry: Nc1ncc2c(n1)-c1c([nH]c3ccc(C4CC4)cc13)CCCC2
Solution: 0.47

----------
tested on: U2OS; assay: Incucyte cell viability with U2OS; format: toxicity, cell-based; conditions: human, 24 h, 10 µM, compound concentration 10 uM, replicate number 1; further: unitless GR value; below 1 slowed growth and below 0 cell loss
Consider the following compounds; for each one, report its Growth Rate.
Answers are plain numbers.

Here is how some compounds turned out for Growth Rate.
- CCC(=O)N[C@@H]1CC[C@H](C(=O)N(C)c2ccc(-c3nc4ccccc4o3)cc2)C1: 0.96
- CCC(=O)O[C@@H](OP(=O)(CCCCc1ccccc1)CC(=O)N1C[C@H](C2CCCCC2)C[C@H]1C(=O)[O-])C(C)C.[Na+] (stereo not given in full): 0.77
- CCOC(=O)c1c(/C(C#N)=C\N)c2ccc(Cl)c(Cl)c2n1C: 0.94
- Cc1cc(OC2CCS(=O)(=O)CC2)cc(C)c1-c1cccc(COc2ccc(CCC(=O)O)c(F)c2)c1: 0.92

Kindly review the next compound as well.
Problem: Consider the compound shown here: COCCNc1nc2ccc(C#CC3(O)CCCCC3)cc2n1-c1ccnc(N)n1 What is its recorded Growth Rate?
Solution: 0.92

----------
system: HEK-293T; assay: Incucyte cell viability with HEK293T; assay type: toxicity, cell-based; conditions: human, 0 h, 10 µM, compound concentration 10 uM, replicate number 2; further: unitless GR value; below 1 slowed growth and below 0 cell loss
Measured endpoint: Growth Rate

• Cc1nnc2n1-c1sc3c(c1C(c1ccccc1Cl)=NC2)C[C@@H](C(=O)N1CCOCC1)C3 = -0.7

Give Growth Rate for all molecules that follow.
1. O=C(Cc1ccccc1[N+](=O)[O-])Nc1ccc(-c2ccc(C(O)(C(F)(F)F)C(F)(F)F)cc2F)cc1
2. Clc1ccccc1C(c1ccccc1)(c1ccccc1)n1ccnc1
3. CN(C)CCCN1c2ccccc2Sc2ccc(Cl)cc21.Cl [CHLORPROMAZINE HYDROCHLORIDE]
4. COCCCS(=O)(=O)c1cc(C)c(-c2ccc(F)c3c2CC[C@H]3Oc2ccc3c(c2)OC[C@H]3CC(=O)O)c(C)c1
5. Cc1csc(S(=O)(=O)N(CC(C)C)c2cc3c(cc2OCc2ccc(C(=O)O)cc2)CCC3)n1
6. COc1cccc(Cn2cc(C(=O)Nc3ccc(C)c(S(=O)(=O)N4CCOCC4)c3)c(-c3ccc(C)cc3)n2)c1
7. CN[C@@H](C)C(=O)N[C@H](C(=O)N1CCC[C@H]1C(=O)N[C@H]1c2ccccc2C[C@H]1OCC#CC#CCO[C@@H]1Cc2ccccc2[C@@H]1NC(=O)[C@@H]1CCCN1C(=O)[C@@H](NC(=O)[C@H](C)NC)C1CCCCC1)C1CCCCC1

Solution:
-0.97
-0.96
-0.89
-0.02
-0.11
-0.05
-0.94

Here are 8 molecules. What values of Growth Rate were reported for them?
1. Nc1nccc(-c2ccn3c(N)nccc23)n1
2. CC(C)(C[C@H]1CN(S(=O)(=O)c2cccc(C(F)(F)F)c2)c2cc(-c3cc(F)cc(OC(F)F)c3)ccc2O1)C(=O)O
3. CCCCC[C@@](C)(O)/C=C/[C@H]1C(=O)CC(O)C1C/C=C\CCCC(=O)O (stereo partly specified)
4. Cc1[nH]nc(C(F)(F)F)c1Cc1sc2c(c1C(=O)N1C[C@](C)(O)CO1)c(=O)n(C)c(=O)n2C(C)C
5. FC(F)(F)c1ccc(CNc2ccc(Cc3c[nH]c4ncc(Cl)cc34)cn2)cn1
6. O=C(NCC1(N2CCN(c3ccccc3)CC2)CCOCC1)c1cccnc1Sc1ccccc1
7. C[C@@H](Oc1cc(-n2cnc3ccc(OC4CCN(C)CC4)cc32)sc1C(N)=O)c1ccccc1Cl [GSK-579289A]
8. Cc1nc(-c2ccc(C(F)(F)F)cc2)sc1C(=O)NCc1ccc(OC(C)(C)C(=O)O)cc1

Solution:
[-0.48, -0.41, 0.17, -0.81, -0.38, -0.38, 0.69, 0.73]

----------
test system: HEK-293T; test: Incucyte cell viability with HEK293T; format: toxicity, cell-based; conditions: human, 24 h, 10 µM, compound concentration 10 uM, replicate number 2; further: unitless GR value; below 1 slowed growth and below 0 cell loss
Measured endpoint: Growth Rate
One number for each entry.

Some compounds with known Growth Rate results, for comparison:
• Cl.O=C(c1ccc(-c2ccc(Cl)cc2)o1)N(Cc1ccccn1)c1ccc(N2CCNCC2)cc1 = 0.25
• O=C(Nc1ccc(Cl)c(-c2ccccn2)c1)c1cccc(COc2ccc(Br)cc2CNCCO)c1.O=CO = -0.07
• CCC(=N\O)/C(C)=C/c1ccc(F)cc1 [A-079] = 0.57
• CC1=NC(C=C2C(=O)Nc3ccc(F)cc32)=C(C)C1C(=O)NCC(O)CN1CCOCC1 (stereo not drawn) = 0.99

For each of the compounds below, state Growth Rate.
1. O=C1NC(=Nc2c(Cl)cccc2Cl)S/C1=C\c1ccc2nccnc2c1
2. CN(C)C/C=C/C(=O)Nc1cccc(S(=O)(=O)N2CCC(NC(=O)c3n[nH]cc3NC(=O)c3c(Cl)cc(Cl)cc3Cl)CC2)c1
3. O=C(Nc1ccccc1Cl)c1cnc2ccc(C3CCNCC3)cn12.O=C(O)C(=O)O
4. CC(=O)c1ccc2c(c1)/C(=C(/NC1CCN(C)CC1)c1ccc3c(c1)OCO3)C(=O)N2

Solution:
0.45
-0.34
-0.03
-0.45
